Attribution: patent US10947216B2

Tested on: IL-23p19
METHOD_SUMMARY: LPS Induced IL23p19 in THP-1 Cells (with IFNγ Primed) Assay
Format: cell-based, human
CONDITION_INFO: THP-1 cells, IFNγ (50 ng/mL) primed, 1 hour compound pre-incubation, LPS 1 ug/mL 18 hours, 10 pt; dihydrochloride; read-out: IL23-p19 ELISA, THP1-IFNy, LPS, 10 pt EC50
Where a name gives a salt, the structure may show the parent alone.

# COMPOUND, OUTPUT_UNIT, EC50
data = [
    ("Cc1cncc(-c2cccc(C(=O)Nc3cn(C)nc3-c3ccc(N4CCOCC4)cn3)n2)c1 [Compound I-176, dihydrochloride]", "µM", 27.9),
]
